Experiment: Solubility of the exemplary drugs in water at 25° C.
Format: physicochemical
Conditions: in water at 25° C.; read-out: Solubility
value kind: solubility (µg/mL)
Give bare numbers, in µg/mL.

{"compound": "CNC1=Nc2ccc(Cl)cc2C(c2ccc[nH]2)=NC1", "value kind": "solubility", "reported result": 1.5}

Report solubility for every entry below.
1. COc1ccc([C@@H]2Sc3c(ccc4ccccc34)N(CCN(C)C)C(=O)[C@@H]2OC(C)=O)cc1 (single isomer, unassigned)
2. O=C(CCCCCCCCc1cccnc1)N1CCC(C=C(c2ccccc2)c2ccccc2)CC1

80000
0.182
